- System: Mycobacterium tuberculosis
- Assay Protocol: Antitubercular activity against luxABCDE expressing Mycobacterium tuberculosis H37Rv infected in human THP1 cells measured after 3 days by luminescence assay
- Type: functional, organism-based
- Settings: THP-1, 72 h
pIC50: −log10 of the molar value.
Catalogue of compounds with associated pIC50

>  <Compound>
O=C(Cn1cnc([N+](=O)[O-])n1)N1CCN(Cc2ccc(C(F)(F)F)cc2)CC1

>  <pIC50>
4.89

$$$$
>  <Compound>
O=C(CCn1cnc([N+](=O)[O-])n1)Nc1cccc(OCc2ccccc2)c1

>  <pIC50>
5.89

$$$$
>  <Compound>
O=C(CCn1cnc([N+](=O)[O-])n1)Nc1cccc(-c2ccccc2)c1

>  <pIC50>
5.64

$$$$
>  <Compound>
O=C(Cn1cnc([N+](=O)[O-])n1)Nc1ccc(Cc2ccccc2)cc1

>  <pIC50>
5.21

$$$$
>  <Compound>
O=C(CCn1cnc([N+](=O)[O-])n1)Nc1ccc(Oc2ccccc2)cc1

>  <pIC50>
5.30

$$$$
>  <Compound>
O=C(Cn1cnc([N+](=O)[O-])n1)N1CCN(Cc2ccc(Cl)c(Cl)c2)CC1

>  <pIC50>
5.40

$$$$
>  <Compound>
O=C(Cn1cnc([N+](=O)[O-])n1)Nc1ccc(N2CCCCC2)cc1

>  <pIC50>
4.96

$$$$
>  <Compound>
O=C(Cn1cnc([N+](=O)[O-])n1)N1CCN(C(c2ccccc2)c2ccc(Cl)cc2)CC1 (configuration not stated)

>  <pIC50>
5.10

$$$$
>  <Compound>
O=C(CCn1cnc([N+](=O)[O-])n1)Nc1ccc(Oc2ccc(F)cc2)cc1

>  <pIC50>
5.42

$$$$
>  <Compound>
O=C(Cn1cnc([N+](=O)[O-])n1)Nc1cccc(-c2ccccc2)c1

>  <pIC50>
4.96

$$$$
>  <Compound>
O=C(CCn1cnc([N+](=O)[O-])n1)Nc1ccc(Oc2ccc(Cl)cc2)cc1

>  <pIC50>
5.47

$$$$
>  <Compound>
NNC(=O)c1ccncc1

>  <pIC50>
6.72

$$$$
